Target: UniProtKB P0DTD1
Test: biochemical
Assay type: biochemical
Settings: 4 h, sheet LOPAC_screen_w_protease; LOPAC1280 at 5 µM; mean of two replicates; read-out: mean
assay-metric: inhibition at 5 µM
Please provide the amount together with its unit, number first.

NC(=O)c1cccc(N)c1 [3-aminobenzamide]    1.28%

**Q:** Look up inhibition at 5 µM for this compound: Cc1ccc(C(=O)Nc2ccc(S(=O)(=O)O)c3cc(S(=O)(=O)O)cc(S(=O)(=O)O)c23)cc1NC(=O)c1cccc(NC(=O)Nc2cccc(C(=O)Nc3cc(C(=O)Nc4ccc(S(=O)(=O)O)c5cc(S(=O)(=O)O)cc(S(=O)(=O)O)c45)ccc3C)c2)c1 [Suramin hexasodium]
**A:** 1.22%

**Q:** Again, but for C=CCc1ccccc1OCC(O)CNC1(C)CCC(C(C)(C)NC(=O)CBr)CC1 (centres unmarked)
**A:** 1.3%

**Q:** Again, but for CN(C)CCOC(C)(c1ccccc1)c1ccccn1 (centres unmarked) [Doxylamine succinate]
**A:** 1.3%

**Q:** Again, but for Cc1cn(C2CC(N=[N+]=[N-])C(CO)O2)c(=O)[nH]c1=O (centres unmarked)
**A:** 1.04%

**Q:** Again, but for O=C(NCC1CCCCN1)c1cc(OCC(F)(F)F)ccc1OCC(F)(F)F (centres unmarked) [Flecainide acetate]
**A:** 1.01%

---

The compounds listed here are annotated with their Replicate_2.
Target: SARS-CoV-2 3CLpro (Severe acute respiratory syndrome coronavirus 2)
Assay: biochemical
Type: biochemical
Set-up: unit not given here
Conditions: sheet LOPAC_screen_w_protease; primary screen with protease, 5 µM; replicate 2

Please review the entries below; each comes with its answer.
CCN(CC)CCCCCCCCOC(=O)c1cc(OC)c(OC)c(OC)c1.Cl [TMB-8 hydrochloride]    -1.585
COC1(C2=NCCN2)COc2ccccc2O1.Cl (centres unmarked) [RX 821002 hydrochloride]    1.255
Cc1nc(N=Nc2ccc(S(=O)(=O)O)cc2S(=O)(=O)O)c(COP(=O)(O)O)c(C=O)c1O [PPADS]    0.7189

**Q:** Look up Replicate_2 for this compound: Cl.O=c1[nH]oc2c1CCNC2 [THIP hydrochloride]
**A:** 0.5405

---

Target: SARS-CoV-2 3CLpro (Severe acute respiratory syndrome coronavirus 2)
Assay: biochemical
Type: biochemical
Details: without Triton X-100; mean ± SD of triplicate; 4 h, 30 °C; read-out: B) EC50 without Triton X-100
The molecules listed here are annotated with their EC50.
Return type: number; implicit unit nM.

Please review the entries below; each comes with its answer.
NC1CCc2cc(O)c(O)cc2C1 (centres unmarked)    2120
N=c1c[n+](N2CCOCC2)[n-]o1    4970
NC(Cc1cc(O)c(O)cc1O)C(=O)O (racemic) [6-Hydroxy-dl-DOPA, reference compound]    652

**Q:** Look up EC50 for this molecule: COc1ccc2c(c1)CC[C@@H]1[C@@H]2CC[C@]2(C)[C@@H](NCCCCCCN3C(=O)C=CC3=O)CC[C@@H]12 [U-73122, reference compound]
**A:** 350

**Q:** Again, but for C=CCN1CCc2cc(O)c(O)cc2C(c2ccccc2)C1 (racemic) [N-allyl-(±)-SKF 38393]
**A:** 1650

**Q:** Again, but for N=C(N)NCCSSCCNC(=N)N
**A:** 3640

Recorded values, source paper PMC7587356.
